Recorded measurements of Activity, one per entry
Molecular target: Neuronal acetylcholine receptor; alpha4/beta2 (Homo sapiens, UniProt P17787+P43681)
Sequence (P17787 whole entry): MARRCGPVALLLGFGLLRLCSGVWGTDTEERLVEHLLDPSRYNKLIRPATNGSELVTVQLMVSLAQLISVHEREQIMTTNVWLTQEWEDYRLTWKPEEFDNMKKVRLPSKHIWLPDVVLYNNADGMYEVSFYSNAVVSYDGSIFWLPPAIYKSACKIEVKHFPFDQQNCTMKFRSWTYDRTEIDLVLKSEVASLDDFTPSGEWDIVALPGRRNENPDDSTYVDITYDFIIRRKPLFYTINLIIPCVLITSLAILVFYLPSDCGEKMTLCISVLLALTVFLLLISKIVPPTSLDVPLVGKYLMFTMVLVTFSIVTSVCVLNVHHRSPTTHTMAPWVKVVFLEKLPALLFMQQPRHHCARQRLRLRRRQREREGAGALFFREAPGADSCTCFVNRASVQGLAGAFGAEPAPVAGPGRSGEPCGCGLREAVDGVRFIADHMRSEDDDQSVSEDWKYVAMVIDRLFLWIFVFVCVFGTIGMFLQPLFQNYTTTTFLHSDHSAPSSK
Sequence (P43681 whole entry): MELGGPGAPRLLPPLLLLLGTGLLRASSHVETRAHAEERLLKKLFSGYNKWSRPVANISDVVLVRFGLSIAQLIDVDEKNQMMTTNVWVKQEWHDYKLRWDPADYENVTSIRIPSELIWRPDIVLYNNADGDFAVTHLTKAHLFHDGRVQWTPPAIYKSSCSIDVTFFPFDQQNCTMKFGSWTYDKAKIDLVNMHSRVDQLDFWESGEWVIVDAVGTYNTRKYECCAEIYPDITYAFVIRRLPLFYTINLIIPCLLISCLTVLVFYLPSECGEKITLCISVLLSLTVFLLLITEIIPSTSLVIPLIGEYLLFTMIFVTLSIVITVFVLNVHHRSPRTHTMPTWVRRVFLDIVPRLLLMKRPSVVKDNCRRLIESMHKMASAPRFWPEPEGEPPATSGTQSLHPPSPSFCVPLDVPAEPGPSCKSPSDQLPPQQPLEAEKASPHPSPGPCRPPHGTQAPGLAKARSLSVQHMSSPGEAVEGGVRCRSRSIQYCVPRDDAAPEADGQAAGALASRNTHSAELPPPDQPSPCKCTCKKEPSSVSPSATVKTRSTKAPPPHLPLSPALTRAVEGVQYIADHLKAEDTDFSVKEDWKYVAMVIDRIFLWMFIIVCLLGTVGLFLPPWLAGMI
Test: Maximal agonist activity on human alpha-4-beta-2 ACHR expressed in HEK293 cells assessed as change in intracellular calcium concentration by FLIPR relative to nicotine
Assay type: functional, cell-based
Enter your answer as a number in %; do not include the unit.

smiles_structure: COc1cc(N2CC[C@H]3CN[C@H]3C2)cnc1Br
Activity (%): 217

With those in mind, consider the next compound.
Would you kindly share the measured Activity for Clc1cc(N2CC[C@@H]3CN[C@@H]3C2)cnc1Cl ? 79

----------
Target: Neuronal acetylcholine receptor; alpha4/beta2 (Homo sapiens, UniProt P17787+P43681)
Test: Agonist activity at human alpha4beta2 ACHR expressed in HEK293 cells assessed as change in intracellular calcium concentration by FLIPR
Recorded measurements of log10 of EC50, one per entry
Heads up, the numbers here are log10 of EC50 in nM units.

molecule: c1cncc(N2C[C@@H]3CCNC[C@@H]32)c1
log10 of EC50: 2.61
//
molecule: COc1cncc(N2C[C@@H]3CCNC[C@@H]32)c1
log10 of EC50: 3.89
//
molecule: COc1cncc(N2CC[C@@H]3CN[C@@H]3C2)c1
log10 of EC50: 3.43

Would you kindly share the measured log10 of EC50 for COc1cc(N2CC[C@@H]3CN[C@@H]3C2)cnc1Br ? 2.56

How about Cc1cc(N2C[C@H]3CCNC[C@H]32)cnc1Cl ? 2.13

----------
Biological target: Neuronal acetylcholine receptor; alpha4/beta2 (Homo sapiens, UniProt P17787+P43681)
Assay: Agonist activity at human alpha4beta2 ACHR expressed in HEK293 cells assessed as change in intracellular calcium concentration by FLIPR
Recorded measurements of log10 EC50, one per entry
Heads up, the numbers here are log10 of EC50 in µM units.

compound: N#Cc1cc(N2C[C@H]3CCNC[C@H]32)cnc1Br
value_measured: -0.76
//
compound: Clc1ccc(N2CC[C@H]3CN[C@H]3C2)cn1
value_measured: -1.89
//
compound: c1ncc(N2C[C@@H]3CCNC[C@@H]32)cn1 (single isomer, unassigned)
value_measured: 0.93
//
compound: COc1cncc(N2C[C@H]3CCNC[C@H]32)c1
value_measured: 0.04
//
compound: N#Cc1cncc(N2CC[C@@H]3CN[C@@H]3C2)c1
value_measured: 0.28

With those in mind, consider the next compound.
Would you kindly share the measured log10 EC50 for N#Cc1cncc(N2C[C@H]3CCNC[C@H]32)c1 ? 0.29

----------
Recorded measurements of EC50, one per entry
Target: Neuronal acetylcholine receptor; alpha4/beta2 (Homo sapiens, UniProt P17787+P43681)
Assay: Agonist activity at human alpha4beta2 ACHR expressed in HEK293 cells assessed as change in intracellular calcium concentration by FLIPR
Enter your answer as a number in nM; do not include the unit.

smiles_structure: NC(=O)c1cc(N2C[C@@H]3CCNC[C@@H]32)cnc1Br
units_symbol: nM
EC50: 1490

smiles_structure: Brc1cc(N2CC[C@H]3CN[C@H]3C2)cnc1Br
units_symbol: nM
EC50: 7.8

smiles_structure: N#Cc1cncc(N2CC[C@H]3CN[C@H]3C2)c1
units_symbol: nM
EC50: 1900

Would you kindly share the measured EC50 for COc1cc(N2C[C@@H]3CCNC[C@@H]32)cnc1Br ? 1690

How about COc1cc(N2CC[C@H]3CN[C@H]3C2)cnc1Br ? 21

How about O=[N+]([O-])c1ccc(N2CC[C@@H]3CN[C@@H]3C2)cn1 ? 110

----------
Target: Neuronal acetylcholine receptor; alpha4/beta2 (Rattus norvegicus, UniProt P09483+P12390)
Sequence (P09483 whole entry): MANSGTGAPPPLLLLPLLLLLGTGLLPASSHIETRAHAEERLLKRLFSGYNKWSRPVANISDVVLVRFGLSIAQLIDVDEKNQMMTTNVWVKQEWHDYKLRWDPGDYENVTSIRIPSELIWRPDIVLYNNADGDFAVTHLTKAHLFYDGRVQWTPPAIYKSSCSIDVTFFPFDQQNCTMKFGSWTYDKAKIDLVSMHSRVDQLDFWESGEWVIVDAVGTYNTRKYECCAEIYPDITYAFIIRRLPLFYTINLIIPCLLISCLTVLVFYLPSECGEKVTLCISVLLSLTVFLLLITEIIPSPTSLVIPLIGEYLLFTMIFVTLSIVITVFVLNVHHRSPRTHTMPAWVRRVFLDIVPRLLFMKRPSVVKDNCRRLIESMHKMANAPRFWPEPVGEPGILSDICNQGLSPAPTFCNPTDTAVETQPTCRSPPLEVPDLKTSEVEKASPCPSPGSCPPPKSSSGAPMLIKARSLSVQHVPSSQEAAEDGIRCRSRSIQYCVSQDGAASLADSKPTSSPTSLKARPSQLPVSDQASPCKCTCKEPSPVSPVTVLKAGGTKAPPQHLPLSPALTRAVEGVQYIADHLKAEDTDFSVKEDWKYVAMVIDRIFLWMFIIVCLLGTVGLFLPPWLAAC
Sequence (P12390 whole entry): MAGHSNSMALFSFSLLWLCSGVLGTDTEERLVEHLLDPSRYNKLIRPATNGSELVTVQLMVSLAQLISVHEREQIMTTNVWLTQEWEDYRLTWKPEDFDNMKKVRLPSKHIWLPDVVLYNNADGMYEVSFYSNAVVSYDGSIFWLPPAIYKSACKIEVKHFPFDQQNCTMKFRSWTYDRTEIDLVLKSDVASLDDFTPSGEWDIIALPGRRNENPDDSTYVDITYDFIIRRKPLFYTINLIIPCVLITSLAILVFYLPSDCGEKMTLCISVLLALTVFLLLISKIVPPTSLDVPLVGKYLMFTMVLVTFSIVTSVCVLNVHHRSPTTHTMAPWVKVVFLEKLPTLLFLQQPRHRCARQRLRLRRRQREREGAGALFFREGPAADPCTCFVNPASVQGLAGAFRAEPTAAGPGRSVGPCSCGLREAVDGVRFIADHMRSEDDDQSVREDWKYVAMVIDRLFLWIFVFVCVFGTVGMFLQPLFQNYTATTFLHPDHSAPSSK
Assay: Displacement of [3H]cytisine from alpha-4-beta-2 ACHR in rat brain homogenate
measured_metric: Ki (nM)
Enter your answer as a number in nM; do not include the unit.

# example entries with known answers
smiles_structure: O=[N+]([O-])c1ccc(N2CC[C@H]3CN[C@H]3C2)cn1
value_measured: 1.5
--
smiles_structure: Clc1ccc(N2CC[C@H]3CN[C@H]3C2)cn1
value_measured: 0.019
--
smiles_structure: Cc1cc(N2C[C@@H]3CCNC[C@@H]32)cnc1Cl
value_measured: 0.043
--
smiles_structure: COc1cc(N2C[C@H]3CCNC[C@H]32)cnc1Br
value_measured: 0.085

Would you kindly share the measured Ki for COc1ccc(N2CC[C@H]3CN[C@H]3C2)cn1 ? 0.98

----------
Target: Neuronal acetylcholine receptor; alpha3/beta4 (Homo sapiens, UniProt P30926+P32297)
Sequence (P30926 whole entry): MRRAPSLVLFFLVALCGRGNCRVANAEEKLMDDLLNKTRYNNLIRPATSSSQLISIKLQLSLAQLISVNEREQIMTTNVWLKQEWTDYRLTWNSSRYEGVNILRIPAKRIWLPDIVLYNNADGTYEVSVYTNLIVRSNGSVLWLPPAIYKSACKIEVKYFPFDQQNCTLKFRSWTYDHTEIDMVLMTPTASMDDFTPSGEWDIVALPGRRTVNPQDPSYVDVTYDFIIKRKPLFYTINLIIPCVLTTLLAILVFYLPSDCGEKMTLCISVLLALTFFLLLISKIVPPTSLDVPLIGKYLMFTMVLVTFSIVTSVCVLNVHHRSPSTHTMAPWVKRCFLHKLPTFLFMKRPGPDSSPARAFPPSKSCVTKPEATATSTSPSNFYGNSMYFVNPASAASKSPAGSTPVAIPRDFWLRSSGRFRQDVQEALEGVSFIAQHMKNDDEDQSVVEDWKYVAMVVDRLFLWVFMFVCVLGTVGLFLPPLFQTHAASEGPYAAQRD
Sequence (P32297 whole entry): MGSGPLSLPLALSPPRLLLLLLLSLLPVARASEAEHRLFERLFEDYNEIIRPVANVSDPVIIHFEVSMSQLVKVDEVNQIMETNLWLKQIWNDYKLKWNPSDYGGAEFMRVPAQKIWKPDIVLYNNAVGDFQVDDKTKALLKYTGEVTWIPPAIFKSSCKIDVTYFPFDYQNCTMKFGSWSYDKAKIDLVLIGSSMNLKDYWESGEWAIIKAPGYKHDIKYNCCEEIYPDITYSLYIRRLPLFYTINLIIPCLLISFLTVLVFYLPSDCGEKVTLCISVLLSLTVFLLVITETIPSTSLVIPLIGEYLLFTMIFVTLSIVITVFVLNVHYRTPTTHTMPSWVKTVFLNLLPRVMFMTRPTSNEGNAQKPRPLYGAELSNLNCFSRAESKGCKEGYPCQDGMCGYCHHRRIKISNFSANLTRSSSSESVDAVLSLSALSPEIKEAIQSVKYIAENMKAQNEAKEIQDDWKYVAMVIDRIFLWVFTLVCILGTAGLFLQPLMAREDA
Assay: Agonist activity at human alpha-3-beta-4 ACHR expressed in HEK293 cells assessed as change in intracellular calcium concentration by FLIPR
Recorded measurements of EC50, one per entry
Output should be the measured figure followed by the unit it is expressed in.

molecule: Clc1ccc(N2CC[C@@H]3CN[C@@H]3C2)nn1
assay_system: Neuronal acetylcholine receptor; alpha3/beta4 (Homo sapiens, UniProt P30926+P32297)
EC50: 394 nM

molecule: c1ncc(N2C[C@@H]3CCNC[C@@H]32)cn1 (single isomer, unassigned)
assay_system: Neuronal acetylcholine receptor; alpha3/beta4 (Homo sapiens, UniProt P30926+P32297)
EC50: 9940 nM

molecule: NC(=O)c1cc(N2C[C@@H]3CCNC[C@@H]32)cnc1Br
assay_system: Neuronal acetylcholine receptor; alpha3/beta4 (Homo sapiens, UniProt P30926+P32297)
EC50: 23300 nM

molecule: COc1ccc(N2CC[C@@H]3CN[C@@H]3C2)cn1
assay_system: Neuronal acetylcholine receptor; alpha3/beta4 (Homo sapiens, UniProt P30926+P32297)
EC50: 2400 nM

molecule: Clc1cc(N2CC[C@H]3CN[C@H]3C2)cnc1Cl
assay_system: Neuronal acetylcholine receptor; alpha3/beta4 (Homo sapiens, UniProt P30926+P32297)
EC50: 9.9 nM

molecule: N#Cc1cc(N2C[C@@H]3CCNC[C@@H]32)cnc1Br
assay_system: Neuronal acetylcholine receptor; alpha3/beta4 (Homo sapiens, UniProt P30926+P32297)
EC50: 794 nM

molecule: Clc1cc(N2C[C@H]3CCNC[C@H]32)cnc1Cl
assay_system: Neuronal acetylcholine receptor; alpha3/beta4 (Homo sapiens, UniProt P30926+P32297)
EC50: 339 nM

molecule: COc1ccc(N2CC[C@H]3CN[C@H]3C2)cn1
assay_system: Neuronal acetylcholine receptor; alpha3/beta4 (Homo sapiens, UniProt P30926+P32297)
EC50: 1100 nM

Would you kindly share the measured EC50 for Clc1ccc(N2CC[C@H]3CN[C@H]3C2)nn1 ? 64.8 nM

How about Brc1cncc(N2CC[C@H]3CN[C@H]3C2)c1 ? 76 nM

How about COc1cc(N2C[C@H]3CCNC[C@H]32)cnc1Br ? 202 nM

How about COc1cc(N2CC[C@@H]3CN[C@@H]3C2)cnc1Br ? 160 nM

How about Brc1cncc(N2CC[C@@H]3CN[C@@H]3C2)c1 (single isomer, unassigned) ? 950 nM

----------
Molecular target: Neuronal acetylcholine receptor; alpha3/beta4 (Homo sapiens, UniProt P30926+P32297)
Assay: Maximal agonist activity at human alpha-3-beta-4 ACHR expressed in HEK293 cells assessed as change in intracellular calcium concentration by FLIPR relative to nicotine
Type: functional, cell-based
measured_metric: Activity (%)
Enter your answer as a number in %; do not include the unit.

# example entries with known answers
compound: N/C(=N/O)c1cncc(N2CC[C@@H]3CN[C@@H]3C2)c1
Activity [%]: 99

compound: Cc1cncc(N2CC[C@@H]3CN[C@@H]3C2)c1
Activity [%]: 87

compound: COc1cncc(N2C[C@@H]3CCNC[C@@H]32)c1
Activity [%]: 47

Would you kindly share the measured Activity for COc1ccc(N2CC[C@@H]3CN[C@@H]3C2)cn1 ? 93

How about O=[N+]([O-])c1ccc(N2CC[C@@H]3CN[C@@H]3C2)cn1 ? 98

How about O=[N+]([O-])c1ccc(N2CC[C@H]3CN[C@H]3C2)cn1 ? 119

----------
Molecular target: Neuronal acetylcholine receptor; alpha3/beta4 (Homo sapiens, UniProt P30926+P32297)
Assay: Maximal agonist activity at human alpha-3-beta-4 ACHR expressed in HEK293 cells assessed as change in intracellular calcium concentration by FLIPR relative to nicotine
Type: functional, cell-based
measured_metric: Activity (%)
Enter your answer as a number in %; do not include the unit.

smiles_structure: Clc1cc(N2CC[C@@H]3CN[C@@H]3C2)cnc1Cl
Activity (%): 111
//
smiles_structure: Clc1ccc(N2CC[C@H]3CN[C@H]3C2)cn1
Activity (%): 151
//
smiles_structure: Clc1ccc(N2CC[C@@H]3CN[C@@H]3C2)cn1
Activity (%): 125
//
smiles_structure: Clc1cc(N2CC[C@H]3CN[C@H]3C2)cnc1Cl
Activity (%): 132
//
smiles_structure: c1cncc(N2CC[C@H]3CN[C@H]3C2)c1
Activity (%): 121

Would you kindly share the measured Activity for COc1cncc(N2CC[C@@H]3CN[C@@H]3C2)c1 ? 86
